The reported numbers originate from the supplement of paper PMC8728848.

Measured glycan array binding signal (z-score) of individual entries
molecular target: Fuc(a1-2)[Gal(a1-3)]Gal(b1-3)GlcNAc(b1-2)Man(a1-3)[Fuc(a1-2)[Gal(a1-3)]Gal(b1-3)GlcNAc(b1-2)Man(a1-6)]Man(b1-4)GlcNAc(b1-4)[Fuc(a1-6)]GlcNAc; assay: glycan array binding signal (z-score within array); higher = stronger binding; conditions: glycan notation: IUPAC condensed, linker removed
This excerpt belongs to a sample that is enriched for the strongest signals.
Kindly provide the number alone.

binder | glycan array binding signal (z-score)
Jacalin (Artocarpus integrifolia) (protein) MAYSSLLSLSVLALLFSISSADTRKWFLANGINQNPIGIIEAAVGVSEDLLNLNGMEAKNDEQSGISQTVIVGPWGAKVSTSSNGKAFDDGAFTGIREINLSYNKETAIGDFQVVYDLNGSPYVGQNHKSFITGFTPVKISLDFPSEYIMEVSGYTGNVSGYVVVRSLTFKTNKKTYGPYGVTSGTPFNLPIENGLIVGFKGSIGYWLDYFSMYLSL | -0.249
GSL-I-B4 (Griffonia simplicifolia) (protein) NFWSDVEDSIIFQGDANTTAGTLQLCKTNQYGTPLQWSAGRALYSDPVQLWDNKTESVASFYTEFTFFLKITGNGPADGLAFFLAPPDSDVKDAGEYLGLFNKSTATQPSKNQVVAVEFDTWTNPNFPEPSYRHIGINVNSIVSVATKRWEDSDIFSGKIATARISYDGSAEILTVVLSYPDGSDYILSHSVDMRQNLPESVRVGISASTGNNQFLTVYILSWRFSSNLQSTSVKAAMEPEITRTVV | 0.077

We now examine a further binder.
Record KISKRILTGKK [NK11 (Sus scrofa)] . Reported glycan array binding signal (z-score): -0.614
